This section lists Ki readings for Itk (Homo sapiens, UniProt Q08881).

Any idea what Ki came out for CN1CCCN(C(=O)c2ccc(-c3cnc4c(-c5ccccn5)c(N)nn4c3)nc2)CC1 [Compound V-70] on Itk (Homo sapiens, UniProt Q08881)?
< 500 nM

Any idea what Ki came out for Nc1nn2cc(-c3cccnc3N3CCN(Cc4ccncc4)CC3)cnc2c1-c1ccccn1 [Compound V-264] on Itk (Homo sapiens, UniProt Q08881)?
500 to 5000 nM

Any idea what Ki came out for CN(CCC#N)C(=O)c1c(N)nn2cc(-c3ccncn3)cnc12 [Compound V-40] on Itk (Homo sapiens, UniProt Q08881)?
500 to 5000 nM

Any idea what Ki came out for Nc1nn2cc(CCCNC3CCCCC3)cnc2c1-c1ccccn1 [Compound V-323] on Itk (Homo sapiens, UniProt Q08881)?
500 to 5000 nM

Any idea what Ki came out for Nc1nn2cc(-c3cccnc3N3CCN(CCO)CC3)cnc2c1-c1ccccn1 [Compound V-266] on Itk (Homo sapiens, UniProt Q08881)?
500 to 5000 nM

Any idea what Ki came out for Nc1nn2cc(-c3ccc(N4CCN(CCO)CC4)nc3)cnc2c1-c1ccccn1 [Compound V-148] on Itk (Homo sapiens, UniProt Q08881)?
< 500 nM

Any idea what Ki came out for CCN(CCN)c1ccc(-c2cnc3c(-c4ccccn4)c(N)nn3c2)cn1 [Compound V-157] on Itk (Homo sapiens, UniProt Q08881)?
< 500 nM

Any idea what Ki came out for Nc1nn2cc(-c3cccc(C(=O)N4CCC[C@@H]4CN4CCCC4)n3)cnc2c1-c1ccccn1 [Compound V-175] on Itk (Homo sapiens, UniProt Q08881)?
500 to 5000 nM

Any idea what Ki came out for Nc1nn2cc(C(=O)NCc3ccccc3)cnc2c1-c1ccccn1 [Compound V-207] on Itk (Homo sapiens, UniProt Q08881)?
500 to 5000 nM

Any idea what Ki came out for Cc1cnc2c(-c3cc(N4CCCC4c4ccc(F)cc4)ncn3)c(N)nn2c1 (centres unmarked) [Compound V-307] on Itk (Homo sapiens, UniProt Q08881)?
500 to 5000 nM

Any idea what Ki came out for COc1cccc(OC)c1-c1cnc2c(-c3ccccn3)c(N)nn2c1 [Compound V-3] on Itk (Homo sapiens, UniProt Q08881)?
500 to 5000 nM

Any idea what Ki came out for Cc1cnc2c(-c3cc(N[C@@H]4CCOC4)ncn3)c(N)nn2c1 [Compound V-335] on Itk (Homo sapiens, UniProt Q08881)?
500 to 5000 nM

Any idea what Ki came out for CN(CCCN)C(=O)c1ccc(-c2cnc3c(-c4ccccn4)c(N)nn3c2)nc1 [Compound V-130] on Itk (Homo sapiens, UniProt Q08881)?
< 500 nM

Any idea what Ki came out for CC(C)CN(C)c1cc(-c2c(N)nn3cc(-c4ccncc4)cnc23)ncn1 [Compound V-243] on Itk (Homo sapiens, UniProt Q08881)?
< 500 nM

Any idea what Ki came out for CC(C)(C)OC(=O)N1CCC(CNC(=O)c2cnc3c(-c4ccccn4)c(N)nn3c2)CC1 [Compound V-201] on Itk (Homo sapiens, UniProt Q08881)?
500 to 5000 nM

Any idea what Ki came out for Nc1nn2cc(-c3cccc(C(=O)NCCF)n3)cnc2c1-c1ccccn1 [Compound V-107] on Itk (Homo sapiens, UniProt Q08881)?
500 to 5000 nM

Any idea what Ki came out for Nc1nn2cc(-c3ccc(CNC4CCNCC4)cc3)cnc2c1-c1ccccn1 [Compound V-232] on Itk (Homo sapiens, UniProt Q08881)?
< 500 nM
